# assay comment: log P by HPLC on reversed-phase column (C18), EEC Directive 79/831 Annex V.A8
# Type: physicochemical
# run conditions: C18, 40° C., neutral
measured quantity: log p neutral

| smiles repr | value observed |
| --- | --- |
| CCN(C)C=Nc1cc(Cl)c(Oc2ccc(Cl)c(C(C)(C)C)c2)cc1C | 6.70 |
| CC(C)N(C)C=Nc1cc(C(F)(F)F)c(Oc2ccc(Cl)c(C(F)(F)F)c2)cc1Cl | 6 |
| CCCN(C)C=Nc1cc(Cl)c(Oc2cc(C(C)(C)C)nn2C)cc1C | 5.09 |
| CN(C)C=Nc1cc(Cl)c(Oc2ccc(Cl)c(C(F)(F)F)c2)cc1Cl | 5.15 |
